In this section we review reported GI50 values for a set of compounds.
Tested on: SNB-75 CNS
measurement protocol: NCI tumour cell line growth inhibition, 48 h
observation type: GI50

>>> assay_value("CC(=O)c1c(CN(C)c2ccccc2)n([O-])c2ccccc2[n+]1=O")
"53 µM"
>>> assay_value("Cn1nc(-c2ccc(Cl)cc2)nc2c(=O)n(C)c(=O)nc1-2")
"2.38 µM"
>>> assay_value("CCOc1cc(Br)c(C(C)NC(=O)c2cccc(OC)c2)cc1OCC (stereo unspecified)")
"6.04 µM"
>>> assay_value("O=C(O)c1cn(C2CC2)c2cc(N3CCN(C(=O)Nc4nc(-c5ccccc5)cs4)CC3)c(F)cc2c1=O")
"1.22 µM"
>>> assay_value("Brc1ccc2[nH]cc(-c3nc(-c4c[nH]c5ncccc45)cs3)c2c1")
"2.08 µM"
>>> assay_value("COc1ccccc1C1=C(Nc2ccccc2)C(=O)NC1=O")
"> 18.1 µM"

----------
Tested on: SK-OV-3 ovarian
measurement protocol: NCI tumour cell line growth inhibition, 48 h
observation type: TGI

>>> assay_value("Cc1cn(CCCCCCC2=NCCCN2)c(=O)[nH]c1=O")
"> 100 µM"
>>> assay_value("Brc1ccc2c3c1[C@H]1O[C@H]1c1cccc(c1-3)[C@@H]1O[C@H]21")
"35.1 µM"
>>> assay_value("C=CCN1C(=O)/C(=C/c2ccco2)N=C1SC1OC(COC(C)=O)C(OC(C)=O)C(OC(C)=O)C1OC(C)=O (configuration not stated)")
"> 100 µM"
>>> assay_value("CCCCCCCCCCCCc1ccc(S(=O)(=O)O)cc1.[Zn+2]")
"> 100 µM"
>>> assay_value("O=[N+]([O-])c1ccc(C2CC(c3ccccc3Cl)=Nc3ccccc3S2=O)cc1 (configuration not stated)")
"52.9 µM"
>>> assay_value("COP(=O)(OC)C(NC(=O)C(F)(F)F)(c1ccccc1)C(F)(F)F (configuration not stated)")
"> 100 µM"
>>> assay_value("CN(CCO)CCCC1COc2ccccc2O1 (configuration not stated)")
"> 100 µM"
>>> assay_value("Oc1ccc(Cl)cc1-c1cc(-c2ccccc2)nc(NCN2CCCCC2)n1")
"> 100 µM"
>>> assay_value("CCC(c1ccc(OC)cc1)C(CC)c1ccc(O)c(CN2CCN(C)CC2)c1 (configuration not stated)")
"29.2 µM"
>>> assay_value("O=C1C2=C(c3ccccc31)C(c1ccccc1)N1C(=O)CSC1=N2 (configuration not stated)")
"> 100 µM"
>>> assay_value("CN(Cc1cccc(F)c1)c1ccc(CO)c(Cl)c1")
"50.4 µM"
>>> assay_value("COc1cccc(/C=N/NC(=S)NC2CC3CCC2C3)c1O (configuration not stated)")
"14.4 µM"
>>> assay_value("CCC/C=C1\\CCC(CN(C)C)C1=O (configuration not stated)")
"> 56.7 µM"
>>> assay_value("Cc1cn(C2CC(N)C(C(=O)NCC(=O)O)O2)c(=O)[nH]c1=O (configuration not stated)")
"> 100 µM"
>>> assay_value("CSC1C(=O)Nc2ccc3ccccc3c21 (configuration not stated)")
"> 100 µM"
>>> assay_value("O=C(CCC(=O)Nc1ccc(Cl)c(Cl)c1)CC(=O)c1ccc(F)cc1")
"> 100 µM"
>>> assay_value("O=[N+]([O-])c1ccccc1S(=O)(=O)c1ccccc1")
"> 100 µM"
>>> assay_value("COc1cc(C2=NNC(=O)c3ccccc3N2c2nc(-c3cccs3)nc3ccc(Br)cc23)cc(OC)c1OC")
"> 100 µM"
>>> assay_value("COC(=O)/C=C\\C(C#N)(C#N)N=Cc1ccccc1")
"32.4 µM"
>>> assay_value("Cc1ccc(-c2c3c(nn2-c2ccc(S(N)(=O)=O)cc2)-c2ccccc2C3)cc1")
"> 100 µM"
>>> assay_value("COC1=C(C)C(=O)c2c(c(CCCl)c3n2CCC3O)C1=O (configuration not stated)")
"3.37 µM"
>>> assay_value("O=c1oc2ccc([N+](=O)[O-])cc2c(Nc2ccc3c(c2)Sc2ccccc2O3)c1[N+](=O)[O-]")
"47.6 µM"
